assayText: ATG_GRE_CIS: Attagene CIS-FACTORIAL HepG2 Assay for human Glucocorticoid Response Elements (GRE) (AID 2282947)
appliedConditions: HepG2 GRE cis-reporter, Attagene multiplex mRNA; actives raise or lower the signal
Calls of active or inactive are those of the source. The calls were made as follows: active = hit-call score of the fitted dose curve at least 0.9, where 1 is the maximum; inactive = score below 0.9.
Allowed answers: active, inactive

Worked set:
[[record]]
compound = "COCCc1ccc(OCC(O)CNC(C)C)cc1 (configuration not stated)"
classlabel = "inactive"

[[record]]
compound = "CC(=O)O[C@@H]1C[C@@H]2CC[C@@]1(C)C2(C)C"
classlabel = "inactive"

[[record]]
compound = "CC(C)(C)c1ccc(C(=O)O)cc1"
classlabel = "inactive"

[[record]]
compound = "CCCC1O[C@@H]2C[C@H]3[C@@H]4CCC5=CC(=O)C=C[C@]5(C)[C@H]4[C@@H](O)C[C@]3(C)[C@]2(C(=O)CO)O1 (some centres not stated)"
classlabel = "active"

[[record]]
compound = "CCCCCC(C=O)=Cc1ccccc1"
classlabel = "inactive"


Can you look up the reported call for Cc1ccc(N)c(S(=O)(=O)O)c1 for me?
inactive
